Test system: K-562 leukemia
Test: NCI tumour cell line growth inhibition, 48 h
TGI: recorded values
Reported Metric: TGI

| Molecule | Value Reported |
| --- | --- |
| CC1(C)CC2CC(C)(CN2c2ncnc3ccc(Br)cc23)C1 (stereo not given) | 6.79 µM |
| CCN1C(=O)N(CC)C2C1NN=c1s/c(=C\c3ccccc3)c(=O)n12 (stereo not given) | > 100 µM |
| CC[N+](CC)(CC)/C(=N/S(=O)(=O)c1cc(C)c(Cl)cc1S)[N-]S(=O)(=O)c1ccc(Cl)cc1 | > 100 µM |
| O=c1[nH]c2c(O)cccc2c2cc3c(c(O)c12)OCO3 | > 100 µM |
| CC(C)c1cccc(C(C)C)c1NC1=CC(=O)C(=O)c2ccccc21 | > 100 µM |

* * *

TGI: recorded values
Tested on: OVCAR-8 ovarian
Assay: NCI tumour cell line growth inhibition, 48 h
Reported Metric: TGI

| Compound | Study Target | Reported Metric | Value Reported |
| --- | --- | --- | --- |
| O=C1/C(=C\c2c(-c3ccccc3)nn(-c3ccccc3)c2O)C(c2ccccc2)=NN1c1ccccc1 | OVCAR-8 ovarian | TGI | > 100 µM |
| CC(=O)OCC(=O)C1(O)C(C)CC2C3C=C(C)C4=Cc5c(cnn5-c5ccccc5)CC4(C)C3C(O)CC21C (centres undefined) | OVCAR-8 ovarian | TGI | 25.5 µM |
| C[C@]12CCCC(=O)C1C[C@H](C(=O)O)CC2 (some centres undefined) | OVCAR-8 ovarian | TGI | > 100 µM |
| Cc1cc(-c2nc3cc(F)ccc3s2)ccc1NC(=O)C(C)N (centres undefined) | OVCAR-8 ovarian | TGI | 8.62 µM |
| CN(CC#N)C(=O)Cc1ccc([N+](=O)[O-])cc1 | OVCAR-8 ovarian | TGI | > 10 µM |
| COC(=O)/C(=C\C(=O)c1ccc(Br)cc1)NN=C(c1ccccc1)c1ccccc1 | OVCAR-8 ovarian | TGI | > 10 µM |
| C/C(CN1C(=O)c2ccccc2C1=O)=N\NS(=O)(=O)c1ccc(F)cc1 | OVCAR-8 ovarian | TGI | > 100 µM |
| CC(=O)N[C@@H](Cc1ccc(OP(=O)(O)O)cc1)C(=O)N[C@H]1CCC(=O)N2CCC[C@@H](C(=O)NCc3ccc(O)cc3)N2C1=O | OVCAR-8 ovarian | TGI | > 25 µM |
| O=C1C=C(Nc2ccccc2C(=O)CC(=O)C(=O)Nc2ccc(Cl)c(Cl)c2)c2ccccc2C1=O | OVCAR-8 ovarian | TGI | > 100 µM |

* * *

Test system: ACHN renal
Test: NCI tumour cell line growth inhibition, 48 h
Quick rule for you: TGI at 4 µM or higher means Condition met, lower means Condition not met.

| Compound | Cat |
| --- | --- |
| CC(C)(C)c1cc(C(C)(C)C)c2sc(=S)oc2c1O | Condition met |
| Brc1ccc(Br)nn1 | Condition not met |
| C[C@@H](Oc1cc(-c2cnn(C3CC4(CCCNC4)C3)c2)cnc1N)c1c(Cl)ccc(F)c1Cl (some centres undefined) | Condition met |
| CCOC(=O)c1cn2c([nH]c3ccccc32)c(C#N)c1=O | Condition met |
| CC(=O)/C=C/C1=C(c2ccsc2)c2ccccc2CC1 | Condition met |
| CC[N+](CC)(CC)/C(=N/S(=O)(=O)c1cc(C)c(Cl)cc1S)[N-]S(=O)(=O)c1ccc(Cl)cc1 | Condition met |
| COc1ccc(NC(=O)O[C@H]2[C@H](O[C@H]3[C@@H](O)COC(O[C@H]4C[C@H]5[C@@H]6CC=C7C[C@@H](O)CC[C@]7(C)[C@H]6CC[C@]5(C)[C@H]4[C@H](C)C(=O)CCC(C)C)[C@@H]3OC(C)=O)OC[C@@H](O)[C@@H]2O)cc1 (some centres undefined) | Condition met |
| CON | Condition met |
| O=C(NO)c1cnc(N2CCN(S(=O)(=O)c3ccc4ccccc4c3)CC2)nc1 | Condition not met |

* * *

Test system: HOP-62 NSCLC
Assay: NCI tumour cell line growth inhibition, 48 h
Reported Metric: GI50

| Compound | Reported Metric | Value Reported |
| --- | --- | --- |
| N#Cc1c(Oc2ccc(F)c(NC(=O)Cc3cccc(C(F)(F)F)c3)c2)ccc2nc(NC(=O)C3CC3)sc12 | GI50 | 0.472 µM |
| CC(C)[O-].CC(C)[O-].[O-]c1cccc2cccnc12.[O-]c1cccc2cccnc12.[Ti+4] | GI50 | > 100 µM |
| COc1ccc(C2C3=C(COC3=O)N(CCO)c3cc4c(cc32)OCCO4)cc1OC (centres undefined) | GI50 | 9.58 µM |
| COc1ccc(-n2sc(=O)n(Cc3ccc(COC(=O)C(C)c4ccc(CC(C)C)cc4)cc3)c2=O)cc1 (centres undefined) | GI50 | 8.84 µM |
| CC[O-].CC[O-].O=C([CH-]C(=O)c1ccccc1)c1ccccc1.O=C([CH-]C(=O)c1ccccc1)c1ccccc1.[Ti+4] | GI50 | > 100 µM |
| O=[N+]([O-])c1ccc(-c2ccccc2)c([As](=O)(O)O)c1 | GI50 | 3.11 µM |
| CCNCCNc1cc(-c2cccc(C(F)(F)F)c2)c(C#N)c2nc3ccccc3n12 | GI50 | 2.13 µM |
| CC1(C)CC2CC(C)(CN2c2ncnc3ccc(Br)cc23)C1 (centres undefined) | GI50 | 12.9 µM |
| COc1cccc(Nc2nccc(Nc3ccc4[nH]ncc4c3)n2)c1 | GI50 | 1.71 µM |

* * *

System: MCF7 breast
Experiment: NCI tumour cell line growth inhibition, 48 h
Reported Metric: TGI (µM)

| Molecule | Reported Metric | Readout Qualifier | Value Reported |
| --- | --- | --- | --- |
| Cc1cc(C)c(NS(=O)c2cccc([N+](=O)[O-])c2)c(C)c1 (stereo not given) | TGI | > | 100 |
| CN(NC(=O)c1cccs1)C1=NCCN1 | TGI | > | 100 |
| COc1ccccc1OC(=O)/C=C/c1ccccc1 | TGI | > | 100 |
| COc1nc2c(c(=O)n1C)NC(C(O)C(O)CO)C=N2 (stereo not given) | TGI | > | 10 |
| c1ccc2c3nnc(c2c1)SCCSCCCSCCS3 | TGI | > | 100 |
| CCOC(=O)[C@H]1C[C@]23CN(C(=O)OC(C)(C)C)CC[C@H]2CCC2(SCCCS2)[C@@H]3N1C | TGI | > | 100 |
| C=CCC1=CC2(OC)C(=O)C(OC)(OC)C1C1C(OC)(OC)C(=O)C(OC)=CC12CC=C (stereo not given) | TGI | > | 100 |
| CCOC(=O)C(Cc1cn(S(=O)(=O)c2ccc(C)cc2)cn1)P(=O)(OCC)OCC (stereo not given) | TGI | > | 100 |
| Cc1cc2nc3c4ccccc4n(CCN(C)C)c3nc2cc1C | TGI | = | 7.14 |
| CS(=O)(=O)c1nc(Cl)c(Cl)c(C#N)c1Cl | TGI | = | 13.2 |
| O=P1(O)c2ccccc2CS(=O)(=O)Cc2ccccc21 | TGI | > | 100 |
| NC(N)=N/N=C/c1ccc(O)c(C(=O)O)c1 | TGI | > | 100 |
| CC(OCc1ccccc1)C(NC(=O)C1CSSCC(NC(=O)C(Cc2ccccc2)NC(=O)OCc2ccccc2)C(=O)NC(Cc2ccccc2)C(=O)NC(Cc2cn(C=O)c3ccccc23)C(=O)NC(CCCCNC(=O)OCc2ccccc2)C(=O)NC(C(C)OCc2ccccc2)C(=O)N1)C(N)=O (stereo not given) | TGI | = | 41.1 |
| CC(=O)N[C@@H](Cc1ccc(OP(=O)(O)O)cc1)C(=O)N[C@H]1CCC(=O)N2CCC[C@@H](C(=O)NCc3ccc(O)cc3)N2C1=O | TGI | > | 25 |
| CC(C)(C)OC(=O)N/N=C(/N)c1ccccc1 | TGI | > | 100 |
| Cc1c(N2C(=O)/C(=C\c3ccc(N(C)C)cc3)N=C2c2ccccc2)c(=O)n(-c2ccccc2)n1C | TGI | > | 100 |
| CCOc1cc(NC(C)=O)ccc1C(=O)NN1C(=O)CSC1c1ccc(O)c(OC)c1 (stereo not given) | TGI | > | 100 |
| COc1cc2c3c(c1O)C1(C=CC(=O)C=C1)CC3N(C)CC2 (stereo not given) | TGI | = | 20.5 |
| CC1(C)S[C@@H]2[C@H](NC(=O)/C=C/c3ccccc3)C(=O)N2[C@H]1C(=O)O | TGI | > | 100 |
| CNC(=O)OCCN1c2ccccc2Sc2ccccc21 | TGI | > | 100 |
| COc1cnc2c(c1)C(=O)c1c-2n(CCCN2CCN(CCO)CC2)c(=O)c2cc([N+](=O)[O-])ccc12 | TGI | = | 1.59 |
| O=C(CCO)OCCCCCC/C=C\CCCCCC/C=C\CCCCCCCCOC(=O)CCO | TGI | = | 40.3 |
| O=C(/C=C/c1ccc(F)c(F)c1)OCCc1ccccc1 | TGI | > | 100 |
| Cc1ccccc1NC(=O)C(=O)Cc1cnc2ccccc2n1 | TGI | > | 100 |
| O=C1N[C@@H]2c3c(Br)sc(Br)c3C(=O)[C@@H]2N1 | TGI | = | 10.1 |
| C=C1C(=O)OC2/C=C(\C)CC(O)/C=C(/CO)CC(OC(=O)/C(C)=C/C)C12 (stereo not given) | TGI | = | 68.2 |
| c1cnc2c(c1)Nc1cnncc1S2 | TGI | > | 100 |
| Cc1cc(-c2nc3cc(F)ccc3s2)ccc1NC(=O)C(C)N (stereo not given) | TGI | = | 2.7 |
| ClC1=C(Cl)C(Cl)=C(Cl)C1=Cc1ccc(Cl)cc1 | TGI | = | 1.79 |
| N#CC(C#N)=Cc1ccc(-c2ccc(-c3nc4ccccc4o3)cc2)o1 | TGI | > | 100 |
| CNCCOc1nc2c3cnccc3cc(-c3cc(OC)c(OC)c(OC)c3)c2c2ccncc12 | TGI | = | 0.275 |
| COc1cccc2c1C(=O)c1c(O)c3c(c(O)c1C2=O)C[C@@](O)(/C(C)=N/NC(=O)c1ccc(Cl)c(Cl)c1)C[C@@H]3OC1CC(N)C(O)C(C)O1 (stereo not given in full) | TGI | > | 100 |
| Cc1cc2c(=O)[nH]nc(N)c2c(N)n1 | TGI | > | 100 |
| C=C(C)[C@@H]1CC[C@]2(C)[C@H](C=CC3=C4C[C@@](C)(CO)CC[C@]4(C)CC[C@]32C)[C@@]1(C)CCCN | TGI | = | 3.4 |
| COc1ccc2c(c1)CC[C@@H]1[C@@H]2CC[C@]2(C)[C@@H](O)/C(=C/c3ccncc3)C[C@@H]12 | TGI | = | 30.2 |
| OC1(c2ccc3ccccc3c2)c2ccc3ccccc3c2C2=NCCN21 (stereo not given) | TGI | > | 100 |
| CC(=O)/C=C/C1=C(c2ccsc2)c2ccccc2CC1 | TGI | = | 40 |
| CO[C@]12C[C@H](CNC(=O)c3cc(Br)c(Br)[nH]3)O[C@H]1NC(=O)N2 | TGI | > | 100 |
| Brc1ccc(Br)nn1 | TGI | = | 2.64 |
| Oc1ccc2ccccc2c1Cc1c(O)ccc2ccccc12 | TGI | = | 53.9 |

Data provenance: PubChem BioAssay (NCI)
